- run_description: Cell viability of human dermal fibroblasts (CellTiter-Blue)
- Assay type: cell-based
- condition_info: primary human dermal fibroblasts (HdFa), 100 µM (highest concentration), 24 h exposure, relative to untreated control

- compound: "CC(C)[C@H](N)C(=O)n1nc(Nc2ccccc2/C=C/C(N)=O)nc1N [2710-33-343]"
  viability at 24 h, 100 µM: "~60%"
